The reported measurements were obtained from patent US4214095A.

Assay: Acute oral toxicity (LD50) in mice
Type: in vivo
Conditions: mouse, in vivo, po; read-out: LD50
Where a name gives a salt, the structure may show the parent alone.
LD50 at 168 h values, listed per item
measure name: LD50 at 168 h

• CCCC(C)(Oc1ccccc1Cc1ccc(Cl)cc1)C(=O)OCC (racemic) = > 10000 mg/kg
• CCOC(=O)C(C)Oc1ccccc1Cc1ccc(Cl)cc1 (stereo not drawn) = > 3000 mg/kg
• CCC(C)(Oc1ccccc1Cc1ccc(Cl)cc1)C(=O)OCc1cccnc1 (racemic) [Example III, hydrochloride] = > 3000 mg/kg
• CCOC(=O)C(C)(CC)Oc1ccccc1Cc1ccc(Cl)cc1 (racemic) = > 10000 mg/kg
• CCOC(=O)C(C)(C)Oc1ccccc1Cc1ccc(Cl)cc1 = > 10000 mg/kg
• CCOC(=O)COc1ccccc1Cc1ccc(Cl)cc1 = 3000 mg/kg
